Below: a set of entries, each annotated with reported melting point.

{"Compound": "O=C(O)COc1ccc(SCc2cc(-c3ccc(C(F)(F)F)cc3)no2)c2c1CCC2", "melting point": "166 to 168 °C"}
{"Compound": "Cc1ccc(NC(=N)Nc2nc(-c3ccccc3)cs2)cc1", "melting point": "152 to 153 °C"}
{"Compound": "CCS(=O)c1cccc(-c2nc(=O)c3ccccc3s2)n1 (stereo not given)", "melting point": "182 °C"}
{"Compound": "O=S(=O)(c1ccc(Cl)cc1)n1ccc2cc(F)ccc21", "melting point": "108 to 109 °C"}
{"Compound": "Cc1ccc(S(=O)(=O)NC(=O)N2CCN(C(=O)c3ccc(Nc4ccnc5cc(C(F)(F)F)ccc45)cc3)CC2)cc1", "melting point": "253 to 255 °C"}
{"Compound": "CCOC(=O)c1cc2c(=O)ccoc2nc1C(=O)OCC", "melting point": "71 to 72 °C"}

So for CCOC(=O)c1ccc(-c2ccc(-c3cccc(OC)c3)c(-c3ccc4c(c3)C(C)(C)CCC4(C)C)c2)cc1 , the logged melting point turned out to be 116 to 118 °C

So for Cc1cccc(-c2[nH]c(C(C)C)nc2-c2cccc(-c3ccc4c(c3)CCCS4=O)c2)n1 (stereo not given) , the logged melting point turned out to be 136 to 139 °C

So for CCC1OC(=O)Nc2ccc(-c3cccc(Cl)c3)cc21 (stereo not given) , the logged melting point turned out to be 146 to 148 °C

So for COc1ccc(Oc2c(C)noc2NS(=O)(=O)c2ccccc2)cc1 , the logged melting point turned out to be 128 to 130 °C

---

Test Readout: melting point

Consider the worked cases shown below.
{"Molecule": "CCOC(=O)C(CC)Cc1ccc(N2C(=O)c3ccccc3C2=O)cc1 (centres undefined)", "melting point": "86 to 87 °C"}
{"Molecule": "CC(C)NC(=O)NC1CCC(=O)c2ccccc21 (centres undefined)", "melting point": "185 to 188 °C"}
{"Molecule": "Cc1cccnc1-c1cc2cccnc2c(=O)[nH]1", "melting point": "225 to 227 °C"}
{"Molecule": "CCCN(c1nc(-c2ccc(OC)cc2Cl)c(C)s1)c1cc(C(C)=O)ccc1OC", "melting point": "50 °C"}
{"Molecule": "COc1ccc(CC2(C(F)F)NC(=O)NC2=O)cc1 (centres undefined)", "melting point": "164 °C"}

Next, consider the following molecule.
So for CC(=O)c1cc(CS(C)=O)ccc1O (centres undefined) , the logged melting point turned out to be 95 to 97 °C

---

Test Readout: melting point

{"Compound": "Cc1cc(C#N)ccc1-c1ccc(O)cc1", "melting point": "136 to 138 °C"}
{"Compound": "CCC(CC)CCOCCCCCCNCC(O)c1ccc(O)c(NS(C)(=O)=O)c1 (stereo not given)", "melting point": "69 to 71 °C"}
{"Compound": "CC(C)c1cc(-c2ccc(N)c3ccccc23)nc(N)n1", "melting point": "185 to 186 °C"}
{"Compound": "COC1=NC(=O)N(C2CCCCC2)S(=O)(=O)N1", "melting point": "173 to 177 °C"}

So for Cc1oc(-c2ccccc2)nc1COc1ccc(COc2ccc(-c3ccccc3)cc2CC(=O)O)cc1 , the logged melting point turned out to be 102 to 103 °C
